tested on: SW-620; assay: NCI tumour cell line growth inhibition, 48 h
Activity calls are given as the source filed them. Rule as the data show it: active = GI50 up to about 1.1 µM and inactive = higher.
Pick from true (active), false (inactive) when you respond.

Worked cases, answers included:
molecule: COC(=O)c1ccc(C)cc1CC1Cc2ccc(C)cc2C1=O (stereo not given)
study.system: SW-620
category.label: false

molecule: COc1cccc2c1C(=O)c1c(O)c3c(c(O)c1C2=O)C[C@@](O)(C(=O)CO)C[C@@H]3OC1CC(N2CCOCC2)C(O)C(C)O1 (stereo not given in full)
study.system: SW-620
category.label: true

molecule: CC1(CO)OC(n2cc(C(=O)NC(=O)OCc3ccccc3)c(=O)[nH]c2=O)CC1O (stereo not given)
study.system: SW-620
category.label: false

Recorded test call requested for COC(=N)C1(C#N)NC(c2ccsc2)C(C#N)(C#N)NC1c1ccsc1 (stereo not given)
false

Recorded test call requested for COc1cc(C=O)c(-c2c(C=O)ccc3c2OCO3)c(OC)c1OC
false

Recorded test call requested for O=C(O/N=C1/CCC/C1=C\c1ccccc1)c1ccc(Cl)c(Cl)c1
false

Recorded test call requested for Cc1ccc(/N=N/NCCCCN)cc1
false

Recorded test call requested for Nc1nc(N)c(-c2ccccc2)c(C(=O)Nc2ccccc2)n1
false

Recorded test call requested for Nc1ccc2nc(-c3cccc(C(F)(F)F)c3)cc(O)c2c1
false

Recorded test call requested for COC(=O)C(=O)C(C(=O)C=C(C)C)C(=O)C(=O)Nc1nc2ccc([N+](=O)[O-])cc2s1 (stereo not given)
false
